test target: PDZ2 domain of human tyrosine phosphatase 1E (hPTP1E) (Homo sapiens, UniProt Q12923)
Construct: the constructs used for the PDZ2 domain of human tyrosine phosphatase 1E; polyhistidine (N); made in house; host or cells: Escherichia coli BL21 (DE3)
test method notes: CIDNP-KD ligand titration (photo-CIDNP hyperpolarized NMR)
Assay type: binding
measurement setup: range over Hβ/H2/H4/H6 fits; read-out: CIDNP-KD affinity, range over the observed tryptophan protons
pKd: −log10 of the molar value. Residues, ends and D or L forms follow the SMILES beside them.
Each entry below carries its recorded pKd.

- molecule: "CC(C)[C@H](NC(=O)[C@H](C)NC(=O)[C@H](CO)NC(=O)[C@@H](NC(=O)[C@H](CCC(N)=O)NC(=O)[C@@H](N)Cc1c[nH]c2ccccc12)C(C)C)C(=O)O [WQVSAV] (H-WQVSAV-OH)"
  test target: "PDZ2 domain of human tyrosine phosphatase 1E (hPTP1E) (Homo sapiens, UniProt Q12923)"
  pKd: "3.70 to 4.72"
- molecule: "CC(C)[C@H](NC(=O)[C@H](C)NC(=O)[C@H](CO)NC(=O)[C@@H](NC(=O)[C@@H](N)Cc1c[nH]c2ccccc12)C(C)C)C(=O)O [WVSAV] (H-WVSAV-OH)"
  test target: "PDZ2 domain of human tyrosine phosphatase 1E (hPTP1E) (Homo sapiens, UniProt Q12923)"
  pKd: "3.48 to 4.10"
- molecule: "CC(C)[C@H](NC(=O)[C@H](C)NC(=O)[C@H](CO)NC(=O)[C@@H](NC(=O)[C@H](CCC(N)=O)NC(=O)[C@H](CCC(=O)O)NC(=O)[C@@H](N)Cc1c[nH]c2ccccc12)C(C)C)C(=O)O [WEQVSAV] (H-WEQVSAV-OH)"
  test target: "PDZ2 domain of human tyrosine phosphatase 1E (hPTP1E) (Homo sapiens, UniProt Q12923)"
  pKd: "4.09 to 4.26"
- molecule: "CC(C)[C@H](NC(=O)[C@H](C)NC(=O)[C@H](CO)NC(=O)[C@@H](N)Cc1c[nH]c2ccccc12)C(=O)O [WSAV] (H-WSAV-OH)"
  test target: "PDZ2 domain of human tyrosine phosphatase 1E (hPTP1E) (Homo sapiens, UniProt Q12923)"
  pKd: "2.48 to 2.51"

====

test target: PDZ2 domain of human tyrosine phosphatase 1E (hPTP1E) (Homo sapiens, UniProt Q12923)
Construct: the constructs used for the PDZ2 domain of human tyrosine phosphatase 1E; polyhistidine (N); made in house; host or cells: Escherichia coli BL21 (DE3)
Sequence (Q12923 1368-1452 limits assumed): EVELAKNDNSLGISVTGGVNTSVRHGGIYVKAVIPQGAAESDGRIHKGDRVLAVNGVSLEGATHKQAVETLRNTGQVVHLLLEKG
test method notes: 2D [1H,15N]-HSQC chemical shift perturbation titration
Assay type: binding
measurement setup: 30 μM 15N PDZ2; 15N–1H moiety of A74; pH 6.8, 298 K; read-out: [1H,15N]-HSQC–CSP KD, NH of A74
Residues, ends and D or L forms follow the SMILES beside them.
parameter measured: log10(Kd) (log10 of the value in µM)

- molecule: "CC(C)[C@H](NC(=O)[C@H](C)NC(=O)[C@H](CO)NC(=O)[C@@H](NC(=O)[C@H](CCC(N)=O)NC(=O)[C@@H](N)Cc1c[nH]c2ccccc12)C(C)C)C(=O)O [WQVSAV] (H-WQVSAV-OH)"
  test target: "PDZ2 domain of human tyrosine phosphatase 1E (hPTP1E) (Homo sapiens, UniProt Q12923)"
  reported result: 1.83
- molecule: "CC(C)[C@H](NC(=O)[C@H](C)NC(=O)[C@H](CO)NC(=O)[C@@H](NC(=O)[C@@H](N)Cc1c[nH]c2ccccc12)C(C)C)C(=O)O [WVSAV] (H-WVSAV-OH)"
  test target: "PDZ2 domain of human tyrosine phosphatase 1E (hPTP1E) (Homo sapiens, UniProt Q12923)"
  reported result: 2.03
- molecule: "CC(C)[C@H](NC(=O)[C@H](C)NC(=O)[C@H](CO)NC(=O)[C@@H](N)Cc1c[nH]c2ccccc12)C(=O)O [WSAV] (H-WSAV-OH)"
  test target: "PDZ2 domain of human tyrosine phosphatase 1E (hPTP1E) (Homo sapiens, UniProt Q12923)"
  reported result: 3.12
- molecule: "CC(C)[C@H](NC(=O)[C@H](C)NC(=O)[C@H](CO)NC(=O)[C@@H](NC(=O)[C@H](CCC(N)=O)NC(=O)[C@H](CCC(=O)O)NC(=O)[C@@H](N)Cc1c[nH]c2ccccc12)C(C)C)C(=O)O [WEQVSAV] (H-WEQVSAV-OH)"
  test target: "PDZ2 domain of human tyrosine phosphatase 1E (hPTP1E) (Homo sapiens, UniProt Q12923)"
  reported result: 1.20
- molecule: "CC(C)[C@H](NC(=O)[C@H](C)NC(=O)[C@H](CO)NC(=O)[C@@H](NC(=O)[C@@H](N)CCC(N)=O)C(C)C)C(=O)O [QVSAV] (H-QVSAV-OH)"
  test target: "PDZ2 domain of human tyrosine phosphatase 1E (hPTP1E) (Homo sapiens, UniProt Q12923)"
  reported result: 2.19

====

test target: PDZ2 domain of human tyrosine phosphatase 1E (hPTP1E) (Homo sapiens, UniProt Q12923)
Construct: the constructs used for the PDZ2 domain of human tyrosine phosphatase 1E; polyhistidine (N); made in house; host or cells: Escherichia coli BL21 (DE3)
test method notes: CIDNP-KD ligand titration (photo-CIDNP hyperpolarized NMR)
Type: binding
measurement setup: tryptophan H4 signal; 20 μM PDZ2 for WSAV, 10 μM for others; pH 6.8, 298 K; read-out: CIDNP-KD, H4
pKd: −log10 of the molar value. Residues, ends and D or L forms follow the SMILES beside them.
# key: entry, value: pKd
parameter measured: pKd

- compound: "CC(C)[C@H](NC(=O)[C@H](C)NC(=O)[C@H](CO)NC(=O)[C@@H](NC(=O)[C@@H](N)Cc1c[nH]c2ccccc12)C(C)C)C(=O)O [WVSAV] (H-WVSAV-OH)"
  parameter measured: "pKd"
  reported result: 3.48
- compound: "CC(C)[C@H](NC(=O)[C@H](C)NC(=O)[C@H](CO)NC(=O)[C@@H](N)Cc1c[nH]c2ccccc12)C(=O)O [WSAV] (H-WSAV-OH)"
  parameter measured: "pKd"
  reported result: 2.51
- compound: "CC(C)[C@H](NC(=O)[C@H](C)NC(=O)[C@H](CO)NC(=O)[C@@H](NC(=O)[C@H](CCC(N)=O)NC(=O)[C@H](CCC(=O)O)NC(=O)[C@@H](N)Cc1c[nH]c2ccccc12)C(C)C)C(=O)O [WEQVSAV] (H-WEQVSAV-OH)"
  parameter measured: "pKd"
  reported result: 4.20
- compound: "CC(C)[C@H](NC(=O)[C@H](C)NC(=O)[C@H](CO)NC(=O)[C@@H](NC(=O)[C@H](CCC(N)=O)NC(=O)[C@@H](N)Cc1c[nH]c2ccccc12)C(C)C)C(=O)O [WQVSAV] (H-WQVSAV-OH)"
  parameter measured: "pKd"
  reported result: 3.64

====

test target: PDZ2 domain of human tyrosine phosphatase 1E (hPTP1E) (Homo sapiens)
Construct: the constructs used for the PDZ2 domain of human tyrosine phosphatase 1E; polyhistidine (N); made in house; host or cells: Escherichia coli BL21 (DE3)
test method notes: CIDNP-KD ligand titration (photo-CIDNP hyperpolarized NMR)
Format: binding
measurement setup: tryptophan H2 signal; 20 μM PDZ2 for WSAV, 10 μM for others; pH 6.8, 298 K; H2 overlaps H6 for WVSAV and WQVSAV; read-out: CIDNP-KD, H2
Residues, ends and D or L forms follow the SMILES beside them.

- compound: "CC(C)[C@H](NC(=O)[C@H](C)NC(=O)[C@H](CO)NC(=O)[C@@H](NC(=O)[C@H](CCC(N)=O)NC(=O)[C@@H](N)Cc1c[nH]c2ccccc12)C(C)C)C(=O)O [WQVSAV] (H-WQVSAV-OH)"
  Kd, µM: 74
- compound: "CC(C)[C@H](NC(=O)[C@H](C)NC(=O)[C@H](CO)NC(=O)[C@@H](NC(=O)[C@H](CCC(N)=O)NC(=O)[C@H](CCC(=O)O)NC(=O)[C@@H](N)Cc1c[nH]c2ccccc12)C(C)C)C(=O)O [WEQVSAV] (H-WEQVSAV-OH)"
  Kd, µM: 63
- compound: "CC(C)[C@H](NC(=O)[C@H](C)NC(=O)[C@H](CO)NC(=O)[C@@H](NC(=O)[C@@H](N)Cc1c[nH]c2ccccc12)C(C)C)C(=O)O [WVSAV] (H-WVSAV-OH)"
  Kd, µM: 80
- compound: "CC(C)[C@H](NC(=O)[C@H](C)NC(=O)[C@H](CO)NC(=O)[C@@H](N)Cc1c[nH]c2ccccc12)C(=O)O [WSAV] (H-WSAV-OH)"
  Kd, µM: 3300

Data provenance: paper PMC11228983
